The entries below come with measured Ki values attached.
Biological target: BCL2 G101V (Homo sapiens, UniProt P10415, G101V)
Assay: TR-FRET competitive binding assay, BCL2 G101V
Conditions: BCL2 G101V; Ki determined from IC50; read-out: TR_FRET EKI_Bcl2 G101V
# answer = value followed by unit

In: Supply measured Ki of Cc1c(C(=O)N(c2ccc(O)cc2)c2cc(C#N)n(C(F)F)c2C)cc(-c2cc3c(cc2C(=O)N2Cc4ccccc4C[C@H]2C)CN(C(=O)Cc2ccc(OCCN4CCOCC4)cc2)CC3)n1C in your reply.
Out: 0.6 nM

In: Supply measured Ki of Cc1c(N(C(=O)c2cc(-c3cc4c(cc3C(=O)N3Cc5ccccc5C[C@H]3C)CN(C(=O)Cc3ccc(OCCN5CCN(CC(F)F)CC5)cc3)CC4)n(C)c2C)c2ccc(O)cc2)cc(C#N)n1C in your reply.
Out: 0.2 nM

In: Supply measured Ki of Cc1c(N(C(=O)c2cc(-c3cc4c(cc3C(=O)N3Cc5ccccc5C[C@H]3C)CN(C(=O)Cc3cccc(N5CCOCC5)c3)CC4)n(C)c2C)c2ccc(O)cc2)cc(C#N)n1C in your reply.
Out: 0.7 nM

In: Supply measured Ki of CCOC[C@@H]1Cc2ccccc2CN1C(=O)c1cc2c(cc1-c1cc(C(=O)N(c3ccc(O)cc3)c3cc(C#N)n(C)c3C)c(C)n1C)CCN(C(=O)Cc1ccc(OCCN3CCOCC3)cc1F)C2 in your reply.
Out: 0.4 nM

In: Supply measured Ki of COCCn1cc(N(C(=O)c2cc(-c3cc4c(cc3C(=O)N3Cc5ccccc5C[C@H]3C)CN(C(=O)Cc3ccc(OCCN5CCOCC5)cc3)CC4)n(C)c2C)c2ccc(O)cc2)cn1 in your reply.
Out: 0.4 nM
